Tested on: Mycobacterium avium subsp. paratuberculosis
assay.explanation: Antituberculosis activity against Mycobacterium paratuberculosis ATCC 19698 isolated from bovine assessed as minimum drug level resulting in no detectable growth at 10^6 CFU of inoculum after 56 days by MGIT 960 susceptibility test
Assay type: functional
quantity.measured: Activity

// known answers, use as guide
{"compound": "Nc1ccc(O)c(C(=O)O)c1 [MESALAMINE]", "measured.target": "Mycobacterium avium subsp. paratuberculosis", "quantity.measured": "Activity", "measured.value": ">64 µg/mL"}
{"compound": "O=C(O)c1cn(C2CC2)c2cc(N3CCNCC3)c(F)cc2c1=O [CIPROFLOXACIN]", "measured.target": "Mycobacterium avium subsp. paratuberculosis", "quantity.measured": "Activity", "measured.value": "32 µg/mL"}
{"compound": "Sc1ncnc2nc[nH]c12 [MERCAPTOPURINE ANHYDROUS]", "measured.target": "Mycobacterium avium subsp. paratuberculosis", "quantity.measured": "Activity", "measured.value": "32 µg/mL"}
{"compound": "Nc1ccc(S(=O)(=O)Nc2ccccn2)cc1 [SULFAPYRIDINE]", "measured.target": "Mycobacterium avium subsp. paratuberculosis", "quantity.measured": "Activity", "measured.value": ">64 µg/mL"}

Form: Entry = CC[C@H]1OC(=O)[C@H](C)[C@@H](O[C@H]2C[C@@](C)(OC)[C@@H](O)[C@H](C)O2)[C@H](C)[C@@H](O[C@@H]2O[C@H](C)C[C@H](N(C)C)[C@H]2O)[C@](C)(O)C[C@@H](C)CN(C)[C@H](C)[C@@H](O)[C@]1(C)O [AZITHROMYCIN] | System = Mycobacterium avium subsp. paratuberculosis | Activity = ____ 16 µg/mL

What measured Activity is associated with CO[C@H]1/C=C/O[C@@]2(C)Oc3c(C)c(O)c4c(O)c(c(/C=N/N5CCN(C)CC5)c(O)c4c3C2=O)NC(=O)/C(C)=C\C=C\[C@H](C)[C@H](O)[C@@H](C)[C@@H](O)[C@@H](C)[C@H](OC(C)=O)[C@@H]1C [RIFAMPIN] on Mycobacterium avium subsp. paratuberculosis? >64 µg/mL

Please provide the recorded Activity for O=C(O)c1cc(/N=N/c2ccc(S(=O)(=O)Nc3ccccn3)cc2)ccc1O [SULFASALAZINE] , tested on Mycobacterium avium subsp. paratuberculosis. >64 µg/mL

Recorded Activity for CCn1cc(C(=O)O)c(=O)c2ccc(C)nc21 [NALIDIXIC ACID] with Mycobacterium avium subsp. paratuberculosis, please? >64 µg/mL

###

Measured Activity of individual entries
System: Mycobacterium avium subsp. paratuberculosis
assay.explanation: Antituberculosis activity against Mycobacterium paratuberculosis ATCC 19698 isolated from bovine assessed as lowest drug level producing inhibition at 10^6 CFU of inoculum by MGIT 960 susceptibility test
Type: functional
A number alone suffices; assume µg/mL.

Examples with answers:
{"compound": "Sc1ncnc2nc[nH]c12 [MERCAPTOPURINE ANHYDROUS]", "quantity.measured": "Activity", "measured.value": 1}
{"compound": "CC[C@H]1OC(=O)[C@H](C)[C@@H](O[C@H]2C[C@@](C)(OC)[C@@H](O)[C@H](C)O2)[C@H](C)[C@@H](O[C@@H]2O[C@H](C)C[C@H](N(C)C)[C@H]2O)[C@](C)(O)C[C@@H](C)CN(C)[C@H](C)[C@@H](O)[C@]1(C)O", "quantity.measured": "Activity", "measured.value": 4}
{"compound": "O=C(O)c1cn(C2CC2)c2cc(N3CCNCC3)c(F)cc2c1=O", "quantity.measured": "Activity", "measured.value": 1}

--- query ---
Query (compound): `CO[C@H]1/C=C/O[C@@]2(C)Oc3c(C)c(O)c4c(O)c(c(/C=N/N5CCN(C)CC5)c(O)c4c3C2=O)NC(=O)/C(C)=C\C=C\[C@H](C)[C@H](O)[C@@H](C)[C@@H](O)[C@@H](C)[C@H](OC(C)=O)[C@@H]1C` ; field requested: Activity 2

###

Tested on: Mycobacterium avium subsp. paratuberculosis
assay.explanation: Antituberculosis activity against Mycobacterium paratuberculosis UCF-5 isolated from Crohn's disease patient assessed as minimum drug level required for inhibition by MGIT 960 susceptibility test
Assay type: functional
Listed next: entries and their corresponding Activity.

{"compound": "Sc1ncnc2nc[nH]c12 [MERCAPTOPURINE ANHYDROUS]", "Activity": "1 µg/mL"}
{"compound": "O=C(O)c1cn(C2CC2)c2cc(N3CCNCC3)c(F)cc2c1=O", "Activity": "2 µg/mL"}
{"compound": "Cn1cnc([N+](=O)[O-])c1Sc1ncnc2[nH]cnc12", "Activity": "2 µg/mL"}

Look up Activity: `CC[C@H]1OC(=O)[C@H](C)[C@@H](O[C@H]2C[C@@](C)(OC)[C@@H](O)[C@H](C)O2)[C@H](C)[C@@H](O[C@@H]2O[C@H](C)C[C@H](N(C)C)[C@H]2O)[C@](C)(O)C[C@@H](C)CN(C)[C@H](C)[C@@H](O)[C@]1(C)O` 0.5 µg/mL

###

System: Mycobacterium avium subsp. paratuberculosis
assay.explanation: Antituberculosis activity against Mycobacterium paratuberculosis B236 isolated from bovine assessed as minimum drug level required for inhibition by MGIT 960 susceptibility test
Format: functional
quantity.measured: Activity (µg/mL)
Note: unit µg/mL is implicit; provide only the numeric part.

Please review the following examples before continuing.
{"molecule": "O=C(O)c1cn(C2CC2)c2cc(N3CCNCC3)c(F)cc2c1=O [CIPROFLOXACIN]", "measured.target": "Mycobacterium avium subsp. paratuberculosis", "Activity [µg/mL]": 4}
{"molecule": "Cn1cnc([N+](=O)[O-])c1Sc1ncnc2[nH]cnc12 [AZATHIOPRINE]", "measured.target": "Mycobacterium avium subsp. paratuberculosis", "Activity [µg/mL]": 8}
{"molecule": "CC[C@H]1OC(=O)[C@H](C)[C@@H](O[C@H]2C[C@@](C)(OC)[C@@H](O)[C@H](C)O2)[C@H](C)[C@@H](O[C@@H]2O[C@H](C)C[C@H](N(C)C)[C@H]2O)[C@](C)(O)C[C@@H](C)CN(C)[C@H](C)[C@@H](O)[C@]1(C)O [AZITHROMYCIN]", "measured.target": "Mycobacterium avium subsp. paratuberculosis", "Activity [µg/mL]": 0.5}

Which Activity is listed for Sc1ncnc2nc[nH]c12 [MERCAPTOPURINE ANHYDROUS] ? 4

###

Tested on: Mycobacterium avium subsp. paratuberculosis
assay.explanation: Antituberculosis activity against Mycobacterium paratuberculosis UCF-7 isolated from Crohn's disease patient assessed as minimum drug level required for killing after 56 days by MGIT 960 susceptibility test
Type: functional
Entries and their measured Activity follow.
Write the number in µg/mL without appending the unit.

Previously resolved entries follow.
{"compound": "Cn1cnc([N+](=O)[O-])c1Sc1ncnc2[nH]cnc12 [AZATHIOPRINE]", "Activity (µg/mL)": 16}
{"compound": "CC[C@H]1OC(=O)[C@H](C)[C@@H](O[C@H]2C[C@@](C)(OC)[C@@H](O)[C@H](C)O2)[C@H](C)[C@@H](O[C@@H]2O[C@H](C)C[C@H](N(C)C)[C@H]2O)[C@](C)(O)C[C@@H](C)CN(C)[C@H](C)[C@@H](O)[C@]1(C)O [AZITHROMYCIN]", "Activity (µg/mL)": 1}
{"compound": "Sc1ncnc2nc[nH]c12 [MERCAPTOPURINE ANHYDROUS]", "Activity (µg/mL)": 8}

Returns the measured Activity for the input compound. Input: O=C(O)c1cn(C2CC2)c2cc(N3CCNCC3)c(F)cc2c1=O [CIPROFLOXACIN] 4

###

System: Mycobacterium avium subsp. paratuberculosis
assay.explanation: Antituberculosis activity against Mycobacterium paratuberculosis B238 isolated from bovine assessed as minimum drug level required for inhibition by MGIT 960 susceptibility test
Assay type: functional
Quick reference for Activity among some compounds
Give just the numeric value; µg/mL need not be written.

{"compound": "O=C(O)c1cn(C2CC2)c2cc(N3CCNCC3)c(F)cc2c1=O", "measured.target": "Mycobacterium avium subsp. paratuberculosis", "quantity.measured": "Activity", "measured.value": 4}
{"compound": "Cn1cnc([N+](=O)[O-])c1Sc1ncnc2[nH]cnc12", "measured.target": "Mycobacterium avium subsp. paratuberculosis", "quantity.measured": "Activity", "measured.value": 16}

Entry Sc1ncnc2nc[nH]c12 [MERCAPTOPURINE ANHYDROUS] has what Activity? 4

###

Form field: Activity (one value per entry).
System: Mycobacterium avium subsp. paratuberculosis
assay.explanation: Antituberculosis activity against Mycobacterium paratuberculosis B213 isolated from bovine assessed as minimum drug level required for killing after 56 days by MGIT 960 susceptibility test
Format: functional
Only the number, expressed in µg/mL, is required.

{"smiles.notation": "O=C(O)c1cn(C2CC2)c2cc(N3CCNCC3)c(F)cc2c1=O", "measured.target": "Mycobacterium avium subsp. paratuberculosis", "measured.value": 16}

Turning now to a further record.
Requested field: Activity. Item: `CC[C@H]1OC(=O)[C@H](C)[C@@H](O[C@H]2C[C@@](C)(OC)[C@@H](O)[C@H](C)O2)[C@H](C)[C@@H](O[C@@H]2O[C@H](C)C[C@H](N(C)C)[C@H]2O)[C@](C)(O)C[C@@H](C)CN(C)[C@H](C)[C@@H](O)[C@]1(C)O` 2

Taken from ChEMBL document CHEMBL1151475.
